Provenance of the data: ChEMBL document CHEMBL4219045

Target: DPP4 (dipeptidyl peptidase 4) (Homo sapiens, UniProt P27487)
Sequence (P27487 whole entry): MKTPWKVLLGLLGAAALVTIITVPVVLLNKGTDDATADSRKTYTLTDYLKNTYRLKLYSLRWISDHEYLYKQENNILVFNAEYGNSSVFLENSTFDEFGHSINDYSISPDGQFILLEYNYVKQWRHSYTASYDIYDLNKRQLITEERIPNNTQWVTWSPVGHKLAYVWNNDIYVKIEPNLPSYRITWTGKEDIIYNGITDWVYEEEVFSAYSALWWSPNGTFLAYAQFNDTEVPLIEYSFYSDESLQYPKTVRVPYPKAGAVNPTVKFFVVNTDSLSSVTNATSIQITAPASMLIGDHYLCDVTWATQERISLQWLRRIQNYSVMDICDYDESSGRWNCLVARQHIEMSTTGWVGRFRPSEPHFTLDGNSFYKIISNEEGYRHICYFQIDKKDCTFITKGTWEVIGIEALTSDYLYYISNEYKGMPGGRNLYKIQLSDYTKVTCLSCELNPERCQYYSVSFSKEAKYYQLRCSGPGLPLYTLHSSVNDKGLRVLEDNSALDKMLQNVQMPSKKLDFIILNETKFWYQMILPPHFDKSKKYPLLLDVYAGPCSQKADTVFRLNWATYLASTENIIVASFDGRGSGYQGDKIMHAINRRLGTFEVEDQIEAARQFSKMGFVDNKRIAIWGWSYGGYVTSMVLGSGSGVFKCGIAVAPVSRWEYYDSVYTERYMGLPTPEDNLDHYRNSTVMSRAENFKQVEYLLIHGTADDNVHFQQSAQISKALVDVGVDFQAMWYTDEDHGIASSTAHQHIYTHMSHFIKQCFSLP
Test: Stability in plasma (unknown origin) assessed as DPP4-mediated drug degradation by measuring half life
Type: ADME
Endpoint name: half-life (min)
One number for each entry, in min.

Look up and report measured half-life (DPP4 (dipeptidyl peptidase 4) (Homo sapiens, UniProt P27487)) for the following substance: H-SDGTFTSDLSKQMEEEAVRLFIEWLKNGGPSGAPPPS-NH2 2
